Test system: E. coli infected rats (experimental abscess)
Assay: In vivo biodistribution in rats bearing experimental abscesses, direct intravenous injection
Design: species or system male Wistar rats
Settings: directly injected i.v., 4 hrs post injection, % injected dose in a % body weight
metric: Relative conc. In infected area

• CCC1(CC)C(=O)N(C(=O)NCc2ccc(I)cc2)C1Oc1ccc(C(=O)N2CCN(C)CC2)cc1 (racemic) [Compound 4] = 0.51
• CCC1(CC)C(=O)N(C(=O)NCc2ccc(I)cc2)C1Oc1ccc(C(=O)N2CCN(C)CC2)cc1 (single isomer, unassigned) [Compound 4a] = 0.52
• CCC[C@@H](NC(=O)N1C(=O)C(CC)(CC)[C@@H]1Oc1ccc(C(=O)N2CCN(C)CC2)cc1)c1ccc(I)cc1 = 0.38
• CCC[C@@H](NC(=O)N1C(=O)C(CC)(CC)[C@@H]1Oc1cccnc1)c1ccc(I)cc1 = 0.22
